Measured values drawn from PubChem BioAssay (NCI) for this set.

For each entry below, report its log10(TGI) value.
# Test system: HCC-2998 colon
# METHOD_SUMMARY: NCI tumour cell line growth inhibition, 48 h
Response schema: value (number) is log10 of TGI in units of µM.

Sample `Cc1cc(=O)[nH]c2c1C(=O)c1c(C)cc(=O)n(C)c1C2=O` ; log10(TGI) observed: -1.24

Sample CCCC/C=C1/CCC(CN(C)C)C1=O (stereo not given) ; log10(TGI) observed: 0.49

Sample `COc1cc(/C=C/C(=O)/C=C/c2ccc(-n3ccnc3)cc2)ccc1O` ; log10(TGI) observed: 0.53

Sample `COc1cc(C(=O)/C=C/c2c(C)n([O-])c3ccc(Cl)cc3[n+]2=O)cc(OC)c1OC` ; log10(TGI) observed: 1.59

Sample `OCCN1CCCN(CCCN2c3ccccc3Sc3ccc(C(F)(F)F)cc32)CC1` ; log10(TGI) observed: 0.52

###

For each entry below, report its GI50 value.
# Test system: SF-295 CNS
# METHOD_SUMMARY: NCI tumour cell line growth inhibition, 48 h

Sample `NCC[PH+](c1ccccc1)c1ccccc1.NCC[PH+](c1ccccc1)c1ccccc1.[Cl-].[Pt+4]` ; GI50 observed: > 100 µM

Sample `O=C(Cc1csc2nc(-c3ccc(Br)cc3)cn12)N/N=C/c1ccccc1O` ; GI50 observed: 2.73 µM

Sample `COc1cc(-c2ccc[nH]2)[nH]c1/C=C1\N=C(C)C(C(=O)NC(C)C)=C1C` ; GI50 observed: 2.9 µM

Sample Cc1nc2sc(C(=O)Nc3cccc(Cl)c3)c(N)c2cc1C(O)c1ccccc1 (configuration not stated) ; GI50 observed: 1.21 µM

Sample `COc1ccc(C2=NOC3=c4ccccc4=CSC3=C2c2ccccc2)cc1` ; GI50 observed: 48.9 µM

Sample `O=C([CH-]C(=O)c1ccccc1)c1ccccc1.[CH2-]C.[CH2-]C.[Tl+3]` ; GI50 observed: 15.6 µM

Sample CCCCCCC1CCCCN1C(c1ccccc1)C(O)c1ccccc1 (configuration not stated) ; GI50 observed: 4.31 µM

###

# System: SK-OV-3 ovarian
# METHOD_SUMMARY: NCI tumour cell line growth inhibition, 48 h
VALUE_KIND: TGI

Sample CC1OC23CCCCC2C(C#N)(C#N)C1(C#N)C(=N)O3 (stereo not drawn) ; TGI observed: > 100 µM

Sample `CN1CCN(Cc2ccc(C(=S)Nc3ccccc3)s2)CC1` ; TGI observed: > 100 µM

Sample `O=C(/C=N/O)Nc1cccc(Cl)c1I` ; TGI observed: > 100 µM

Sample `CSc1ccc2c(c1)N(CCCN(C)C)c1ccccc1S2` ; TGI observed: 29.4 µM

Sample CCOC(=O)CCC(NC(=O)c1ccc(NCc2ccc3nc(OC)c(OC)nc3c2)c2ccccc12)C(=O)OCC (stereo not drawn) ; TGI observed: > 100 µM

Sample CC1(c2ccc(Cl)cc2)c2ccccc2C(=O)N1CCCN1C(=O)c2ccccc2C1=O (stereo not drawn) ; TGI observed: > 100 µM

Sample `Cc1nc(Nc2ccc(Cl)c(Cl)c2)sc1C(/C=C/c1ccc2c(c1)OCO2)=N/Nc1ccc([N+](=O)[O-])cc1[N+](=O)[O-]` ; TGI observed: > 100 µM

Sample `Cc1c(-c2ccccc2)oc(=O)c2ccccc12` ; TGI observed: 54.4 µM

Sample `CCN(CCCl)c1cc(CN(C)C)cc(NC(=O)c2ccc(C(=O)Nc3cccc(N(CCCl)NN)c3)cc2)c1` ; TGI observed: 13.3 µM

Sample Nc1ncnc2c1ncn2C1C(O)C=C(CO)C1O (stereo not drawn) ; TGI observed: > 625 µM

Sample `COC(=O)c1sc(=S)c2sc(C(=O)OC)c(C(=O)OC)c2c1C(=O)OC` ; TGI observed: > 100 µM

Sample `CN=C1C=C(/N=C2/C=C(N/C(=C\C#N)C(C)(C)O)OC2(C)C)OC1(C)C` ; TGI observed: > 73.6 µM

Sample `Cc1cc(Br)c(O)c(-c2cscn2)c1` ; TGI observed: > 100 µM

Sample CC1(O)CC23CC(O)C4(O)C(CC(O)C4(C)C)C(C)(O)C2CCC1C3O (stereo not drawn) ; TGI observed: > 100 µM

Sample `Nc1c(-c2ccccc2)c2ccc([N+](=O)[O-])cc2c(=O)n1-c1cccc(C(=O)O)c1` ; TGI observed: > 100 µM

Sample CCCCCCC1CCCCN1C(c1ccccc1)C(O)c1ccccc1 (stereo not drawn) ; TGI observed: 25.1 µM

Sample `Nc1cccc(C(=O)/C=C/c2ccccc2O)c1` ; TGI observed: > 100 µM

Sample NCC1OC(OC2C(N)CC(N)C(O)C2OC2OC(CO)C(O)C2O)C(N)C(O)C1O (stereo not drawn) ; TGI observed: > 100 µM

Sample `c1ccc(-c2nc3ccccc3[nH]2)c(OCCCCCOc2ccccc2-c2nc3ccccc3[nH]2)c1` ; TGI observed: 34 µM

Sample `c1ccc2c(c1)n1nnnc1c1nnnn21` ; TGI observed: > 100 µM

Sample CC(=O)CCN1CC2CN=NC2(C#N)C1 (stereo not drawn) ; TGI observed: > 100 µM

Sample `CN(C)CN(C)c1nc(N(C)C)nc(N(C)C)n1` ; TGI observed: > 100 µM

Sample `CNc1ccc(CSc2ccc(C)cc2)cc1` ; TGI observed: > 100 µM

###

# System: HT29 colon
# METHOD_SUMMARY: NCI tumour cell line growth inhibition, 48 h
For each entry below, report its GI50 value.

Sample `O=C([CH-]C(=O)c1ccccc1)c1ccccc1.[CH2-]C.[CH2-]C.[Tl+3]` ; GI50 observed: 26 µM

Sample `C=C(c1ccc(C(=O)NCCCn2ccnc2)cc1)c1cc2c(cc1C)C(C)(C)CCC2(C)C` ; GI50 observed: 0.509 µM

Sample Nc1c([N+](=O)[O-])ncn1C1OC(CO)C(O)C1O (stereo not given) ; GI50 observed: > 100 µM

Sample `COc1cc(C(=O)Nc2ccc(-c3nc4ccccc4[nH]3)cc2)cc(OC)c1OC` ; GI50 observed: 5.95 µM

Sample `Cn1cc(C2=C(c3cccc([N+](=O)[O-])c3)C(=O)NC2=O)c2ccccc21` ; GI50 observed: 7.29 µM

###

# Test system: NCI-H226 lung
# METHOD_SUMMARY: NCI tumour cell line growth inhibition, 48 h
For each entry below, report its TGI value.
Provide only the numeric value, understood in µM.

Sample CC(CSc1nc2c(c(=N)n1-c1ccccc1)c(=S)n(-c1ccccc1)c(=S)n2-c1ccccc1)CN(C)C (stereo not given) ; TGI observed: 14.2

Sample `CC(C)OC(=O)c1cc(NC(=S)OC(C)C)ccc1Cl` ; TGI observed: 37.6

Sample `O=C(/C=C/c1ccccn1)c1ccccc1` ; TGI observed: 29.7

Sample `O=C(O)c1cc2ccc(Cl)cc2c(O)c1C1=CCCCC1` ; TGI observed: 68.3

Sample Clc1ccc(C2=CC(c3ccccc3)N3C(=N[C@H]4CCCC[C@@H]43)N2)cc1 (stereo not given in full) ; TGI observed: 23

###

# System: SK-MEL-5 melanoma
# METHOD_SUMMARY: NCI tumour cell line growth inhibition, 48 h
For each entry below, report its TGI value.
Provide only the numeric value, understood in µM.

Sample `COc1ccccc1CNCCCN1C(=O)c2ccc3c4c(ccc(c24)C1=O)C(=O)N(CCCNCCCCN)C3=O` ; TGI observed: 0.303

Sample `O=c1c2ccccc2n2nnc3ccc(NCCNCCO)c1c32` ; TGI observed: 4.37

Sample `C=C(c1ccc(C(=O)NCCCn2ccnc2)cc1)c1cc2c(cc1C)C(C)(C)CCC2(C)C` ; TGI observed: 2.43

Sample COc1ccc(C=C2C(C)=NN(c3cccc(Cl)c3)C23C(Cl)C(=O)N3c2nc3ccccc3s2)cc1 (stereo unspecified) ; TGI observed: 32.9

Sample `Cc1ncc([N+](=O)[O-])n1CCOc1ccc(C(=O)/C=C/c2ccc(C(F)(F)F)cc2)cc1` ; TGI observed: 20.3

Sample `O=C(N[C@H]1CC2(C=C(I)C(=O)C(I)=C2)OC1=O)OCc1ccccc1` ; TGI observed: 74.6

###

# System: SK-MEL-28 melanoma
# METHOD_SUMMARY: NCI tumour cell line growth inhibition, 48 h
For each entry below, report its TGI value.

Considering `Clc1cc(Cl)cc(Nc2ccc3c(OCCCN4CCOCC4)cccc3n2)c1` , its TGI with SK-MEL-28 melanoma was recorded as 3.3 µM

Considering CC1(c2ccc(Cl)cc2)c2ccccc2C(=O)N1CCCN1C(=O)c2ccccc2C1=O (stereo unspecified) , its TGI with SK-MEL-28 melanoma was recorded as > 100 µM

Considering `CN(C)CCC(/C=C/c1ccccc1)=N\Nc1c(F)c(F)c(F)c(F)c1F` , its TGI with SK-MEL-28 melanoma was recorded as > 100 µM

Considering `CN(Cc1ccccc1)C(=S)S` , its TGI with SK-MEL-28 melanoma was recorded as > 100 µM

Considering `C#CCN(CCCOc1ccc(Cl)cc1Cl)CCCSC(=O)CCCCCN1/C(=C\C=C2/CCCC(/C=C/C3=[N+](CCCCCC(=O)[O-])c4ccccc4C3(C)C)=C2Cl)C(C)(C)c2ccccc21` , its TGI with SK-MEL-28 melanoma was recorded as 2.43 µM

Considering `COC(=O)c1sc2c(Cl)c(Cl)sc2c1Cl` , its TGI with SK-MEL-28 melanoma was recorded as > 100 µM

Considering `COc1cc2c(cc1OCCN1CCN(CCOc3cc4c(cc3OC)C(=O)N3CCC[C@H]3C=N4)CC1)N=C[C@@H]1CCCN1C2=O` , its TGI with SK-MEL-28 melanoma was recorded as > 100 µM

Considering `Nc1ncnc2c1ncn2CCCNO` , its TGI with SK-MEL-28 melanoma was recorded as > 100 µM

Considering CC(=O)O[C@H]1C(=O)[C@@]2(C)C([C@H](OC(=O)c3ccccc3)[C@]3(O)C[C@H](OC(=O)[C@H](O)[C@@H](NC(=O)c4ccc(Cl)cc4)c4ccccc4)C(C)=C1C3(C)C)C1(OC(C)=O)CO[C@@H]1C[C@@H]2O (stereo partly specified) , its TGI with SK-MEL-28 melanoma was recorded as 25 µM

Considering `Cc1cn([C@H]2CN(O)C[C@@H](CO)O2)c(=O)[nH]c1=O` , its TGI with SK-MEL-28 melanoma was recorded as > 100 µM

Considering `CC(C)(C)c1cc(C(C)(C)C)c2sc(=O)oc2c1O` , its TGI with SK-MEL-28 melanoma was recorded as 32.5 µM

Considering `CCCCCCCCCCCCCCCC[N+](C)(C)CCl` , its TGI with SK-MEL-28 melanoma was recorded as > 50.7 µM

Considering `CN(C)CCCNC(=O)N/N=C/c1ccccn1` , its TGI with SK-MEL-28 melanoma was recorded as > 10 µM

Considering `Nc1cccc(C(=O)/C=C/c2ccccc2O)c1` , its TGI with SK-MEL-28 melanoma was recorded as > 100 µM

Considering `C[C@]12CC[C@H]3[C@@H](CCC4=C/C(=N/OCCN5CCCCC5)CC[C@@]43C)[C@@H]1CC[C@@H]2O` , its TGI with SK-MEL-28 melanoma was recorded as 28 µM

Considering `O=C(NCCNC1=CC(=O)c2nc3ccccc3c3ccnc1c23)c1cnccn1` , its TGI with SK-MEL-28 melanoma was recorded as > 100 µM

Considering `CCOC(=O)C(=O)Nc1nc2ccc(OC)cc2s1` , its TGI with SK-MEL-28 melanoma was recorded as > 100 µM

Considering `Cc1cc(C)n(C(C)(C(=O)Cc2ccccc2)n2nc(C)cc2C)n1` , its TGI with SK-MEL-28 melanoma was recorded as > 100 µM

Considering `O=C(CCCCCCCCC(=O)N1C(=O)CC(=O)N(c2ccc(Cl)cc2)C1=S)N1C(=O)CC(=O)N(c2ccc(Cl)cc2)C1=S` , its TGI with SK-MEL-28 melanoma was recorded as > 100 µM

Considering N#Cc1cc2c(n(C3OC(CO)C(O)C(O)C3O)c1=S)CCC2 (stereo unspecified) , its TGI with SK-MEL-28 melanoma was recorded as > 100 µM

Considering `N#Cc1nc(-c2ccsc2)oc1N` , its TGI with SK-MEL-28 melanoma was recorded as > 100 µM
